target: Human PDE4 Enzyme; experiment: PDE4 screening assay ([3H]cAMP SPA); conditions: human neutrophil PDE4, [3H]cAMP SPA
Hi there, I'd appreciate the recorded IC50 for every entry that follows.
Answers are plain numbers, in nM.

Use the examples below as a reference point.
COc1ccc(-c2nc(C(=O)N3CCC(Nc4ncccn4)CC3)c([C@H](C)N)o2)c2ccc(C(F)(F)F)nc12 [26-177]: 3
COc1ccc(-c2nc(C(=O)N3CCN(C(=O)C4CC4)CC3)c([C@H](C)N)o2)c2ccc(C(F)(F)F)nc12 [26-293]: 0.5

Look at each compound and report its IC50.
1. COc1ccc(-c2nc(C(=O)NC3CCCc4nccnc43)c([C@H](C)N)o2)c2ccc(C(F)(F)F)nc12 (mixture of isomers) [26-42]
2. COc1ccc(-c2nc(C(=O)N[C@H]3CCC[C@@H]3O)c([C@H](C)N)o2)c2ccc(C(F)(F)F)nc12 [26-417]
3. COc1ccc(-c2nc(C(=O)NC[C@@H](C)NC(=O)C3CC3)c([C@H](C)N)o2)c2ccc(C(F)(F)F)nc12 [26-444]
4. COc1ccc(-c2nc(C(=O)NCc3coc4ccccc34)c([C@H](C)N)o2)c2ccc(C(F)(F)F)nc12 [26-92]
5. COc1ccc(-c2nc(C(=O)NCc3ccc(F)cc3F)c([C@@H](N)CO)o2)c2ccc(C(F)(F)F)nc12 [38-3]
6. COc1ccc(-c2nc(C(=O)N3C[C@](O)(c4ncccn4)C[C@H]3C(=O)OC(C)C)c([C@H](C)N)o2)c2ccc(C(F)(F)F)nc12 [26-241]
7. COc1ccc(-c2nc(C(=O)NCc3csc4ccccc34)c(CN)o2)c2ccc(C(F)(F)F)nc12 [13-106]

[0.07, 1.4, 0.03, 0.01, 1.8, 0.2, 0.14]
